conditions: buffer, pH 7.3
Label True for high-side T1/2 prodrug (at or above 1 min) and False for low-side T1/2 prodrug (below it).

compound: O=C(O)CCC(NC(=O)Oc1ccc(COC(=O)Nc2ccccc2N(CCBr)CCBr)cc1)C(=O)O (centres unmarked)
classAssignment: True
--
compound: O=C(O)CCC(NC(=O)Nc1ccc(COC(=O)Nc2ccc(N(CCBr)CCBr)cc2)cc1)C(=O)O (centres unmarked)
classAssignment: False
--
compound: CS(=O)(=O)OCCN(CCOS(C)(=O)=O)c1ccccc1NC(=O)OCc1ccc(OC(=O)NC(CCC(=O)O)C(=O)O)cc1 (centres unmarked)
classAssignment: True
--
compound: O=C(O)CCC(NC(=O)Oc1ccc(COC(=O)Nc2ccccc2N(CCI)CCI)cc1)C(=O)O (centres unmarked)
classAssignment: True
--
compound: O=C(O)CCC(NC(=O)Oc1ccc(COC(=O)Nc2ccc(N(CCBr)CCBr)cc2)cc1)C(=O)O (centres unmarked)
classAssignment: False
--
compound: CN(C(=O)OCc1ccc(OC(=O)NC(CCC(=O)O)C(=O)O)cc1)c1ccc(N(CCI)CCI)cc1 (centres unmarked)
classAssignment: True

[in] Is it the case that O=C(O)CCC(NC(=O)Oc1ccc(COC(=O)Nc2ccccc2N(CCCl)CCCl)cc1)C(=O)O (centres unmarked) has T1/2 prodrug reaching or exceeding 1 min?
[out] True

====

conditions: buffer
Criterion: T1/2 prodrug/T1/2 drug strictly under 8. Met: criterion met. Not met: criterion not met.

compound: O=C(O)CCC(NC(=O)Oc1ccc(COC(=O)Nc2ccccc2N(CCCl)CCCl)cc1)C(=O)O (centres unmarked) [CP-12]
classAssignment: criterion not met

compound: CN(C(=O)OCc1ccc(OC(=O)NC(CCC(=O)O)C(=O)O)cc1)c1ccc(N(CCI)CCI)cc1 (centres unmarked) [CP-15]
classAssignment: criterion met

compound: O=C(O)CCC(NC(=O)Nc1ccc(COC(=O)Nc2ccccc2N(CCCl)CCCl)cc1)C(=O)O (centres unmarked) [CP-5]
classAssignment: criterion not met

compound: CN(C(=O)OCc1ccc(NC(=O)NC(CCC(=O)O)C(=O)O)cc1)c1ccc(N(CCBr)CCBr)cc1 (centres unmarked) [Compound P-2]
classAssignment: criterion met

compound: O=C(O)CCC(NC(=O)Oc1ccc(COC(=O)Nc2ccc(N(CCBr)CCBr)cc2)cc1)C(=O)O (centres unmarked) [CP-11]
classAssignment: criterion met

compound: O=C(O)CCC(NC(=O)Oc1ccc(COC(=O)Nc2ccc(N(CCI)CCI)cc2)cc1)C(=O)O (centres unmarked) [CP-9]
classAssignment: criterion met

compound: O=C(O)CCC(NC(=O)Nc1ccc(COC(=O)Nc2ccc(N(CCBr)CCBr)cc2)cc1)C(=O)O (centres unmarked) [CP-4]
classAssignment: criterion met

Please look at the following compound next.
[in] Dear reviewer, please state whether CN(C(=O)OCc1ccc(OC(=O)NC(CCC(=O)O)C(=O)O)cc1)c1ccc(N(CCBr)CCBr)cc1 (centres unmarked) [CP-16] has T1/2 prodrug/T1/2 drug strictly beneath 8.
[out] criterion met

====

target: CPG2 (Pseudomonas sp., UniProt P06621); format: biochemical, Pseudomonas R16
Sequence (P06621 23-415): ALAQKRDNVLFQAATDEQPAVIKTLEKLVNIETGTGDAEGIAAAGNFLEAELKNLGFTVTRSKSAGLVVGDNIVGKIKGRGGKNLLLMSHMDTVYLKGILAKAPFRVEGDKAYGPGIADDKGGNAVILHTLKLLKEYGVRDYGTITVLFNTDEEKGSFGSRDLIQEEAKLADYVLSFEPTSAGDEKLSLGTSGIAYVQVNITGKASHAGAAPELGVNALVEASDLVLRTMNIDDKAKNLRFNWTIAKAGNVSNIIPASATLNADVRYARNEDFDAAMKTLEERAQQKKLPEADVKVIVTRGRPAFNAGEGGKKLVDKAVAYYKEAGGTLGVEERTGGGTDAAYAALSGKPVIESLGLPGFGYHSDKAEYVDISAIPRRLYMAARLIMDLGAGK
experimentalReadout: kcat (s⁻¹)
The answer is to be given in s⁻¹; state only the numeric part.

compound: CN(C(=O)OCc1ccc(NC(=O)NC(CCC(=O)O)C(=O)O)cc1)c1ccc(N(CCCl)CCCl)cc1 (stereo not drawn) [Compound P-3]
experimentalReadout: kcat
unitAbbreviation: s⁻¹
reportedValue: 5.50

[in] Find the measured kcat of O=C(O)CCC(NC(=O)Oc1ccc(COC(=O)Nc2ccccc2N(CCCl)CCCl)cc1)C(=O)O (stereo not drawn) [CP-12] and report it.
[out] 4.27

[in] Find the measured kcat of O=C(O)CCC(NC(=O)Nc1ccc(COC(=O)Nc2ccccc2N(CCCl)CCCl)cc1)C(=O)O (stereo not drawn) [CP-5] and report it.
[out] 2.92

[in] Find the measured kcat of CN(C(=O)OCc1ccc(OC(=O)NC(CCC(=O)O)C(=O)O)cc1)c1ccc(N(CCCl)CCCl)cc1 (stereo not drawn) [CP-17] and report it.
[out] 4.32

====

log10 T1/2 prodrug values, listed per item
details: buffer, pH 7.3
Annotation: log10 of T1/2 prodrug, min basis.

Example entries begin here.
compound: O=C(O)CCC(NC(=O)Nc1ccc(COC(=O)Nc2ccc(N(CCI)CCI)cc2)cc1)C(=O)O (stereo not shown) [CP-2]
log10 T1/2 prodrug: -0.01
//
compound: CN(C(=O)OCc1ccc(OC(=O)NC(CCC(=O)O)C(=O)O)cc1)c1ccc(N(CCBr)CCBr)cc1 (stereo not shown) [CP-16]
log10 T1/2 prodrug: 0.43
//
compound: O=C(O)CCC(NC(=O)Nc1ccc(COC(=O)Nc2ccccc2N(CCCl)CCCl)cc1)C(=O)O (stereo not shown) [CP-5]
log10 T1/2 prodrug: 2.03

[in] Find the measured log10 T1/2 prodrug of O=C(O)CCC(NC(=O)Nc1ccc(COC(=O)Nc2ccccc2N(CCI)CCI)cc1)C(=O)O (stereo not shown) [CP-1] and report it.
[out] 0.43

[in] Find the measured log10 T1/2 prodrug of CN(C(=O)OCc1ccc(OC(=O)NC(CCC(=O)O)C(=O)O)cc1)c1ccc(N(CCCl)CCCl)cc1 (stereo not shown) [CP-17] and report it.
[out] 2.24

[in] Find the measured log10 T1/2 prodrug of O=C(O)CCC(NC(=O)Nc1ccc(COC(=O)Nc2ccccc2N(CCBr)CCBr)cc1)C(=O)O (stereo not shown) [CP-3] and report it.
[out] 0.48

[in] Find the measured log10 T1/2 prodrug of CS(=O)(=O)OCCN(CCCl)c1ccccc1NC(=O)OCc1ccc(OC(=O)NC(CCC(=O)O)C(=O)O)cc1 (stereo not shown) [CP-14] and report it.
[out] 1.00

====

settings: buffer
T1/2 prodrug/T1/2 drug values, listed per item
The response must contain the number and no unit.

compound: CN(C(=O)OCc1ccc(NC(=O)NC(CCC(=O)O)C(=O)O)cc1)c1ccc(N(CCI)CCI)cc1 (stereo not drawn) [Compound P-1]
T1/2 prodrug/T1/2 drug: 6.5
--
compound: CN(C(=O)OCc1ccc(NC(=O)NC(CCC(=O)O)C(=O)O)cc1)c1ccc(N(CCCl)CCCl)cc1 (stereo not drawn) [Compound P-3]
T1/2 prodrug/T1/2 drug: 20.9

[in] Find the measured T1/2 prodrug/T1/2 drug of O=C(O)CCC(NC(=O)Nc1ccc(COC(=O)Nc2ccccc2N(CCBr)CCBr)cc1)C(=O)O (stereo not drawn) [CP-3] and report it.
[out] 3.5

[in] Find the measured T1/2 prodrug/T1/2 drug of O=C(O)CCC(NC(=O)Oc1ccc(COC(=O)Nc2ccccc2N(CCBr)CCBr)cc1)C(=O)O (stereo not drawn) [CP-10] and report it.
[out] 3.5

[in] Find the measured T1/2 prodrug/T1/2 drug of O=C(O)CCC(NC(=O)Nc1ccc(COC(=O)Nc2ccc(N(CCI)CCI)cc2)cc1)C(=O)O (stereo not drawn) [CP-2] and report it.
[out] 1.9

[in] Find the measured T1/2 prodrug/T1/2 drug of CN(C(=O)OCc1ccc(OC(=O)NC(CCC(=O)O)C(=O)O)cc1)c1ccc(N(CCCl)CCCl)cc1 (stereo not drawn) [CP-17] and report it.
[out] 20.6
